- TARGET_OR_TEST_SYSTEM: T1, human GITR expressed on cells (human, UniProt Q9Y5U5 26-241)
- T1 sequence: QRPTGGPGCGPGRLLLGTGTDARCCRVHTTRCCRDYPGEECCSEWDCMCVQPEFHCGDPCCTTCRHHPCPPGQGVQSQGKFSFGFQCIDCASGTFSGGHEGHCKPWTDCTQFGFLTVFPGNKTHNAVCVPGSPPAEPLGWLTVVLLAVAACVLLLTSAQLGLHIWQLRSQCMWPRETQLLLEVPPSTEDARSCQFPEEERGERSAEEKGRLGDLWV
- ASSAY_METHOD_TEXT: cell-based or functional assay
Please provide measured EC50 (nM), human GITR transfected NF-κB luciferase gene reporter cell line for the entries that follow.
Report the value in nM with no unit label.

Input: Fill in EC50 (nM), human GITR transfected NF-κB luciferase gene reporter cell line for record hexameric GITRL FP (Coronin 1a wt) (Fc fusion, not shown: a dimerising Fc or GST; small tags and cut ends) chain (part 1 of 2): VSRLEEEMRKLQATVQELQKRLDRLEETVQAK chain (part 2 of 2): LQLETAKEPCMAKFGPLPSKWQMASSEPPCVNKVSDWKLEILQNGLYLIYGQVAPNANYNDVAPFEVRLYKNKDMIQTLTNKSKIQNVGGTYELHVGDTIDLIFNSEHQVLKNNTYWGIILLANPQFIS
Output: 0.95

Input: Please list EC50 (nM), human GITR transfected NF-κB luciferase gene reporter cell line recorded for the binder hexameric GITRL FP (DMPK variant) (Fc fusion, not shown: a dimerising Fc or GST; small tags and cut ends) chain (part 1 of 2): IAEIEVTIRELQEAIEEEVLTRQSLSREIEAIRTDIQNIASQLREIEARIRDLEAHVRQLQERMELLQAE chain (part 2 of 2): LQLETAKEPCMAKFGPLPSKWQMASSEPPCVNKVSDWKLEILQNGLYLIYGQVAPNANYNDVAPFEVRLYKNKDMIQTLTNKSKIQNVGGTYELHVGDTIDLIFNSEHQVLKNNTYWGIILLANPQFIS
Output: 1.39

Data origin: patent US20170073386A1
